Consider the following compounds; for each one, report its EC50.
target: Short transient receptor potential channel 4 (Mus musculus, UniProt Q9QUQ5); experiment: block of DAMGO-driven TRPC4 calcium entry – cell-based, HEK293 TRPC4/mu-opioid, Fluo-4 calcium, dose response (AID 434942); type: functional;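 note: potency of inhibitors blocking the TRPC4 calcium response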
Sequence (Q9QUQ5 whole entry): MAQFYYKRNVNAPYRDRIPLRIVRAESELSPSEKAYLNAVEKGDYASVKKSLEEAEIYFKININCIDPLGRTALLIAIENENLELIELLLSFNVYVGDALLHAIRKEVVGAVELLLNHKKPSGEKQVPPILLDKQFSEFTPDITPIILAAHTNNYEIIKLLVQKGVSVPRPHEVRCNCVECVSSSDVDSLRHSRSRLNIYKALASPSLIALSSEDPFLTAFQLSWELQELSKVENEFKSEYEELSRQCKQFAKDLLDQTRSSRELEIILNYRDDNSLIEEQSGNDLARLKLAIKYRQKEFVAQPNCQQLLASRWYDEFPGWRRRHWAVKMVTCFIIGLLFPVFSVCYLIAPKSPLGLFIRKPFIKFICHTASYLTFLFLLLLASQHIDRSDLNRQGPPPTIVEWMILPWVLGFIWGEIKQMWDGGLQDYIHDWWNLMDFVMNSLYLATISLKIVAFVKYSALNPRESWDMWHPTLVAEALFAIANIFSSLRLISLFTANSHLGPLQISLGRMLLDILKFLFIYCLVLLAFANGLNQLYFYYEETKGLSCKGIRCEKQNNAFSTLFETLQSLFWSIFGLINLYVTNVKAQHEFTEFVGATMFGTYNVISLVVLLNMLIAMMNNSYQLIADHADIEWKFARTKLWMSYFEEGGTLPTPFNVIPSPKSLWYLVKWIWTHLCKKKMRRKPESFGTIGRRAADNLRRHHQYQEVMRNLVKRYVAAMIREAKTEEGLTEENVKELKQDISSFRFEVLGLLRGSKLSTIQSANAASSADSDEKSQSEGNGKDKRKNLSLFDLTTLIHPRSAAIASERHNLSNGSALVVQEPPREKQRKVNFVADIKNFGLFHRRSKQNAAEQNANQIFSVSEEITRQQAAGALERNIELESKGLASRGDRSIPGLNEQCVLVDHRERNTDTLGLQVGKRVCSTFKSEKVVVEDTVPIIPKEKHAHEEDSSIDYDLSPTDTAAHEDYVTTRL
The source made the active and inactive calls.

### Prompt Bench note: what EC50 did COC(=O)c1c(NC(=O)CSc2nc[nH]n2)sc(C)c1C show?
### Response 4.73 µM (active)

### Prompt Also need COc1cc(CNC2CCCC2)cc(Cl)c1OCc1ccc(F)cc1 , thanks.
### Response 6.68 µM (active)

### Prompt Also need CSc1nsc(NC(=O)Cc2ccccc2)n1 , thanks.
### Response 5.31 µM (active)

### Prompt Queued: N#Cc1c(NC(=O)C2CC(Cl)=CCC2C(=O)O)sc2c1CCCCC2 (stereo unspecified)
### Response 4.73 µM (active)

### Prompt Here is the next compound: Cc1ccc(C2CN(C)CC2C(=O)c2ccc(F)cc2)cc1 (stereo unspecified)
### Response 13.3 µM (active)

### Prompt Please do the same for Cc1ccc(C(C)(C)C)cc1S(=O)(=O)Nc1nc2ccccc2nc1Cl as well.
### Response 6.68 µM (active)

----------
target: Kappa-type opioid receptor (Homo sapiens, UniProt P41145); type: functional
Sequence (P41145 whole entry): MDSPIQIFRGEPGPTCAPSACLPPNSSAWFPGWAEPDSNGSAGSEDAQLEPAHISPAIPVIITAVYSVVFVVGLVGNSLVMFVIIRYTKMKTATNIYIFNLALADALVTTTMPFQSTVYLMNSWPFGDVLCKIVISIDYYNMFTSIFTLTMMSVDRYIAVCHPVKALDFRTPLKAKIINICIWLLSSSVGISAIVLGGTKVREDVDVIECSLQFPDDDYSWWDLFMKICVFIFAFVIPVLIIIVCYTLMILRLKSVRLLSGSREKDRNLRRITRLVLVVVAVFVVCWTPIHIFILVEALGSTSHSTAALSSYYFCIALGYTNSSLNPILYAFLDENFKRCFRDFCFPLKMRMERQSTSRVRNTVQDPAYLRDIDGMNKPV
Activity calls are given as the source filed them.
For each record, write down the corresponding IC50.

### Prompt What is its IC50 for Kappa-type opioid receptor (Homo sapiens, UniProt P41145)? Entry: COc1ccc(-n2nc(C#N)c(Cl)cc2=O)cc1
### Response 7.21 µM (active)

### Prompt What about Cc1cccc(C(=O)NC2CC3CCCC(C2)N3Cc2ccccc2)c1 (centres undefined) ?
### Response 15.7 µM (active)

### Prompt Subsequent entry: COc1cc(/C=C2\SC(=S)N(NC(=O)c3ccc(O)c(OC)c3)C2=O)ccc1O
### Response 14.9 µM (active)

### Prompt Do the same for Cc1nn(-c2ccccc2)c(O)c1/C=N/N1C(=O)c2cccc3cccc(c23)C1=O please
### Response 10.3 µM (active)

----------
test: alpha-synuclein stem-loop luciferase translation blockers – H4 neuroglioma cells, luminescence, confirmation (AID 1988); assay type: functional, cell-based
Active and inactive are the calls of the source.
MEASUREMENT_KIND: EC50

### Prompt So what's the measured EC50 for this one? CCOc1cc(/C=N\NC(=O)C2C(=O)NCC2c2ccccc2)ccc1OC (configuration not stated)
### Response > 120 µM (not active)

### Prompt Field entry: Fc1ccc(C[n+]2c(-c3ccccc3)cc(-c3ccccc3)cc2-c2ccccc2)cc1.[O-][Cl+3]([O-])([O-])[O-]
### Response > 120 µM (not active)

### Prompt What about Cc1ccc(OCC(=O)N2N=C(C(F)(F)F)CC2(O)C(C)(C)C)cc1C (configuration not stated) ?
### Response 33.1 µM (active)

### Prompt Also CC(C)c1ccc(-n2c(-c3ccccc3)c[n+]3c2CCc2ccccc2-3)cc1 ?
### Response 11.7 µM (active)

### Prompt // query: Cc1ccc(CSc2nc3cc[nH]cc-3n2)cc1
### Response 7.38 µM (active)

### Prompt Another: COCCn1c(SCC(=O)Nc2cccc(C(=O)OC)c2)nc2ccccc2c1=O
### Response 15.2 µM (active)

### Prompt Also, Cc1cccc(-n2c(SCc3ccc(C#N)cc3)nnc2-c2c[nH]c3ccccc23)c1 please.
### Response 25.7 µM (active)

----------
molecular target: Streptokinase A (Streptococcus pyogenes serotype M1, UniProt P10520); experiment: viability-normalized secreted streptokinase activity reduction – plasminogen activation absorbance, OD405, dose response (AID 1914); format: functional, Streptococcus pyogenes M1 GAS;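 note: secreted streptokinase activity via plasminogen activation per viability signal from cell pellet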
Sequence (P10520 whole entry): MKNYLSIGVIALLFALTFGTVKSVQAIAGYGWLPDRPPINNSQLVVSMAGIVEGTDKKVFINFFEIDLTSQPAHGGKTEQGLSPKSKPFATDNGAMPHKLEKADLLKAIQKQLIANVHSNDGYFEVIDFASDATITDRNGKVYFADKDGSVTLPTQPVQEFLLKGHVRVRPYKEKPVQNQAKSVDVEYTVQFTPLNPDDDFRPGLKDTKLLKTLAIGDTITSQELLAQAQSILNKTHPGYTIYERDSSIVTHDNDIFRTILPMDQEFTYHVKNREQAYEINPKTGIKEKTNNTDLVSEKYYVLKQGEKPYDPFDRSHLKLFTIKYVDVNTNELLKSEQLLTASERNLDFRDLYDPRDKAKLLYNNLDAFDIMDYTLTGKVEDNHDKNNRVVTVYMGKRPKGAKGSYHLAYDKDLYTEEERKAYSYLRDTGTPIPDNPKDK
The source made the active and inactive calls.
MEASUREMENT_KIND: EC50

### Prompt Which EC50 value belongs to O=C(N/N=C/c1ccccn1)c1ccc(Cl)c(Cl)c1 ?
### Response > 150 µM (not active)

### Prompt Also O=C(Nc1ccc2c(c1)CCC2)c1cc(S(=O)(=O)Nc2ccc(F)cc2)c(Cl)cc1Cl , if possible.
### Response 3.26 µM (active)

### Prompt And Cc1ccc(C)c(CSC2=NCCN2S(=O)(=O)c2ccccc2)c1 ?
### Response 17.3 µM (active)

### Prompt Moving on to the next compound: Nc1nc(N)c(/C=N/c2ccc(Br)cc2)c(Nc2ccc(Br)cc2)n1
### Response > 150 µM (not active)

### Prompt Similarly, COc1cc([N+](=O)[O-])cc(/C=N/NC(=O)c2cc(-c3ccccc3)nc3ccccc23)c1O ?
### Response > 150 µM (not active)

### Prompt # iterate: C[n+]1ccc(C=NNc2nc(Cl)c(C#N)c(Cl)c2Cl)cc1
### Response > 150 µM (not active)

### Prompt Proceed to O=C(C[n+]1nc(CNc2ccc(Cl)cc2)n2c1CCCCC2)c1ccc(Br)cc1
### Response 12.5 µM (active)

----------
molecular target: Heat shock protein HSP 90-alpha (Homo sapiens, UniProt P07900); assay type: functional, organism-based
Activity calls are given as the source filed them.
MEASUREMENT_KIND: AC50

### Prompt I'd like to know its AC50. The compound in question is OCCOCCn1c(C2CCCN2c2nc(-c3ccc(F)cc3)cs2)nc2cc(Cl)c(Cl)cc21 (stereo unspecified)
### Response 6110 nM (active)

### Prompt Now the compound O=C(/C=C/c1ccccc1)NC(=S)NNC(=O)c1cnccn1
### Response 2870 nM (active)

### Prompt Again, but for CCCCCCC(=O)N(O)C1CC(=O)N(c2ccc(F)cc2)C1=O (stereo unspecified)
### Response 2580 nM (active)

### Prompt Moving on to Cc1cc(C(C)(C)CC(C)(C)C)ccc1OCCOCC[N+](C)(C)Cc1ccccc1
### Response 7560 nM (active)

### Prompt Note, next up: CC1=C/C(=N\OS(=O)(=O)c2ccccc2)C(C(C)C)=CC1=O
### Response 751 nM (active)

### Prompt Now consider O=C(O)c1ccc(N/N=C/c2ccc(-c3ccccc3)cc2)cc1 .
### Response 3090 nM (active)

----------
Please provide measured IC50 for the entries that follow.
Molecular target: Protein Tat (Human immunodeficiency virus type 1 group M subtype B (isolate HXB2)(HIV-1), UniProt P04608);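 note: tat binding to TAR RNA read out by fluorescence polarization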
Sequence (P04608 whole entry): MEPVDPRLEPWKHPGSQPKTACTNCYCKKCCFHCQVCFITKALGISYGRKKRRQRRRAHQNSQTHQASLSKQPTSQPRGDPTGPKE
Type: functional
Active and inactive are the calls of the source.

### Prompt So what does the record say about IC50 for CCOC(=O)/C=C1\SCC(=O)N1CC(=O)NC(C)c1ccc(F)cc1 (stereo unspecified) ?
### Response > 100 µM (active)

### Prompt Now give it for CCC(C)(C)n1nnnc1C(c1ccc2ncccc2c1)N1CCN(c2ccc(O)cc2)CC1 (stereo unspecified) too.
### Response > 100 µM (active)

### Prompt Ok, now COc1ccc(OC)c(Nc2nc(-c3ccc(O)c(O)c3)cs2)c1
### Response > 100 µM (inconclusive)

### Prompt Field entry: CNC(=O)[C@@H]1C[C@H]1[C@@H](NC(=O)OCc1ccccc1)c1ccccc1
### Response > 100 µM (active)

### Prompt Now give it for CCOc1ccc(CNc2ccc(N3CCCC3)cc2)cc1 too.
### Response 75.3 µM (inconclusive)

### Prompt Then what about the molecule Nc1ccc(N2CCN(CCCCN3C(=O)C4CCCN4C3=O)CC2)cc1 (stereo unspecified) ?
### Response > 100 µM (active)

----------
assay: reduction of Shn3 3'UTR-driven luciferase in osteoblasts – cell-based, Clone20 osteoblasts, firefly luciferase, cherry-picked, dose response (AID 624132); assay type: functional;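 note: firefly luciferase luminescence from reporter carrying the Shn3 3'UTR in osteoblasts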
Calls of active or inactive are those of the source.
MEASUREMENT_KIND: AC50

### Prompt # input molecule: Cc1nc2ccccn2c1C(=O)NC1CCCc2ccccc21 (stereo unspecified) ; wanted: its AC50
### Response 2.47 µM (active)

### Prompt Entry Cc1ccc(Cn2ccc(NC(=O)c3nn(C)cc3[N+](=O)[O-])n2)cc1 please
### Response 4.09 µM (active)

### Prompt Do the same for Cc1c(CCOC(=O)C23CC4(C)CC(C)(CC(C)(C4)C2)C3)sc[n+]1CC(=O)c1ccccc1 please
### Response 5.84 µM (active)

### Prompt Try the molecule CC(C)NC(=O)C1CCN(C(=O)c2cc3sccc3n2Cc2ccc(F)cc2)CC1
### Response 5.05 µM (active)

### Prompt Then CN(c1ccccc1)S(=O)(=O)c1cccc(NC(=O)c2ccc3ncsc3c2)c1 ?
### Response 17.2 µM (active)

### Prompt Please give the result for O=C(Nc1nc(-c2ccccc2)cs1)C1CCCCN1S(=O)(=O)c1ccccc1 (stereo unspecified) too.
### Response 5.14 µM (active)
